System: SH-SY5Y cells
Details: PKIS2 primary screening, DQ Red BSA spot count
MEASUREMENT TYPE: DQ Spot
Form rule: numeric answer, no unit written next to it.

| COMPOUND | MEASURED TARGET | DQ Spot |
| --- | --- | --- |
| COc1ccc(Nc2nccc(N3CCC(NC(=O)c4cccc(C#N)c4)C3)n2)cc1 (centres unmarked) | SH-SY5Y cells | 85.55 |
| CN1CCN(Cc2cccc(-c3ccc4c(Nc5ccc(Oc6ccccc6)cc5)ccnc4c3)c2)CC1 [UNC10225484A, reference compound] | SH-SY5Y cells | 68.80 |
| Cl.c1ccc(Cn2ccc3cc(Nc4ncnc5ccccc45)ccc32)cc1 [UNC10225488A] | SH-SY5Y cells | 98.20 |
| CC(C)(C)c1ccc2nccc(Nc3cccc(O)c3)c2c1 [UNC10225361A] | SH-SY5Y cells | 54.23 |
| CN(c1ccc(NC(=O)Nc2cccc(Cl)c2)cc1)c1ccnc(N)n1 | SH-SY5Y cells | 87.81 |
| C[C@@H]1CC[C@H](C(=O)NC2CCCCC2)CN1c1cc(-c2ccc3c(N)n[nH]c3c2)nc(N)n1 | SH-SY5Y cells | 112.54 |

So what does the record say about DQ Spot for CS(=O)(=O)CCNCc1ccc(-c2ccc3ncnc(Nc4ccc(OCc5ccccc5)c(Cl)c4)c3c2)o1.Cl [UNC10112604A] ?
89.48

So what does the record say about DQ Spot for CS(=O)(=O)CCNCc1nc(-c2ccc3ncnc(Nc4ccc(OCc5ccccc5)c(Cl)c4)c3c2)cs1.Cl [UNC10225279B] ?
92.63

So what does the record say about DQ Spot for Cl.Cl.NC[C@H](CC1CCCCC1)NC(=O)c1cc(Br)c(-c2ccnc3[nH]ccc23)s1 [UNC10225276A] ?
71.17

So what does the record say about DQ Spot for "O=C(NCCNc1ccnc(Nc2ccc(F)cc2)n1)Nc1ccccc1F" ?
97.82

So what does the record say about DQ Spot for "CN(C)c1cc(-c2ccc3c(N)n[nH]c3c2)nc(N)n1" ?
98.17

* * *

Quick reference for AK among some compounds
System: SH-SY5Y cells
Assay: AK (adenylate kinase) release ToxiLight cytotoxicity assay
Conditions: PKIS2 primary screen

Sample answers from the record:
| COMPOUND | MEASURED TARGET | OBSERVED VALUE |
| --- | --- | --- |
| NS(=O)(=O)c1cccc(N/C=C2\C(=O)Nc3ccc(S(=O)(=O)Cc4c(Cl)cccc4Cl)cc32)c1 [UNC10225298A] | SH-SY5Y cells | 117.06 |
| CCN(CC)CCOc1ccc(Nc2ncc3cc(-c4c(Cl)cccc4Cl)c(=O)n(C)c3n2)cc1 [UNC10225459A] | SH-SY5Y cells | 131.29 |
| COc1ccccc1CNC(=O)c1cc(C(=O)c2ccccc2C)c[nH]1 [UNC10225294A] | SH-SY5Y cells | 95.17 |

So what does the record say about AK for O=C(Nc1c(F)cccc1F)c1cc(C(=O)c2ccccc2F)c[nH]1 [UNC10225351A] ?
106.59

* * *

Test system: SH-SY5Y cells
Experiment: AK (adenylate kinase) release ToxiLight cytotoxicity assay
Settings: PKIS2 primary screening
Rule: AK below 80 gives Satisfied, anything at or above gives Not satisfied.

| MOLECULE | LABEL VALUE |
| --- | --- |
| COc1cc2nccc(Nc3cccc(Oc4ccccc4)c3)c2cc1OC.Cl [UNC10225170A] | Satisfied |
| COc1ccc(S(=O)(=O)NC2CCN(c3cc(C)nc(Nc4cccc(C#N)c4)n3)CC2)cc1 | Satisfied |
| Cn1cncc1-c1cc2c(Nc3ccc(OCc4ccccc4)cc3)ncnc2cn1 [UNC10225035A] | Satisfied |
| COc1cc(Nc2nccc(N3CCC(NC(=O)c4cccc(C#N)c4)C3)n2)cc(OC)c1OC (centres unmarked) | Not satisfied |
| CS(=O)(=O)CCNCc1nc(-c2ccc3ncnc(Nc4ccc5c(cnn5Cc5ccccc5)c4)c3c2)cs1.Cl.Cl [UNC10225115A] | Not satisfied |
| CCCCc1nn2ncccc2c1-c1ccnc(NC2CC2)n1 [UNC10225247A] | Not satisfied |

Now for a further molecule.
Please check: AK for "Nc1n[nH]c2cc(-c3ccccn3)ccc12" , strictly under 80 or not?
Not satisfied
